- targetEntity: T1, human FAPα-His tag (Sino biological) (human, UniProt Q12884 26-760)
- T1 construct: Bought protein; also called human FAPα-His protein; not shown: His tag
- T1 sequence (looked up): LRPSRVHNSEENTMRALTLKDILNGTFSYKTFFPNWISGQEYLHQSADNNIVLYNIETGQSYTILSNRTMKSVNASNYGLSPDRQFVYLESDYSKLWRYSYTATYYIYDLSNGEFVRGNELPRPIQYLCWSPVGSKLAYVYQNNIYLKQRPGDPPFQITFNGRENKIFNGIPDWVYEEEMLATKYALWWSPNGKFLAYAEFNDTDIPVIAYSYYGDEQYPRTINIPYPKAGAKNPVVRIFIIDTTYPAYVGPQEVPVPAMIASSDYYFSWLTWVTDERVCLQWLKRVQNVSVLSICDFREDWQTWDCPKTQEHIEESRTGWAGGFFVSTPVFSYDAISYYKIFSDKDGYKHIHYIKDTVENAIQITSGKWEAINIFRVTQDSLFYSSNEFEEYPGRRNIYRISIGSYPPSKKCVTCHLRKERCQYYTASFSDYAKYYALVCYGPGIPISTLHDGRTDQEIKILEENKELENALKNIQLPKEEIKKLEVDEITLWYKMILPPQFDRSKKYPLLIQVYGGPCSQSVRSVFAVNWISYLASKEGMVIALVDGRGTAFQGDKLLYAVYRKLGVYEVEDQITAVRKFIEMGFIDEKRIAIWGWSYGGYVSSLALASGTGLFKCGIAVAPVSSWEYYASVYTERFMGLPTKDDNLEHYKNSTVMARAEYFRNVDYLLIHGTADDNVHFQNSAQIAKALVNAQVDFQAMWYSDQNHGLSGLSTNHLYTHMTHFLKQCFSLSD
- protocol: SPR (Biacore T200), mAb captured on Protein A chip, human FAPα-His as analyte
Below, each entry is listed alongside its reported koff.

# lookup: koff of J59 (antibody, V domains shown, Tested as a mAb) VH: QVQLLESGGGVVQPGRSLRLSCAASGFTFSSYGMHWVRQAPGKGLEWVAVISYDGSNKYYADSVKGRFTISRDNSKNTLYLQMNSLRADDTAVYYCARESYTGLGSFLHWGQGTLVTVSA VL: NIQLTQSPSSLSASVGDRVTITCRASQTISNYLNWYQQKPGKAPKLLISAASSLQGGVPSRFSGSGSGTDFTLAISSLQPEDSATYYCQYWGTFGQGTKLEIK
0.000594 s⁻¹

Consider the binder shown here: G14 (antibody, V domains shown, Full human antibody from a Fab phage library; Tested as a mAb (detected with anti-human IgG, captured on Protein A); also called FAP-G14; FAP-G14-Bio (biotin-conjugated form)) VH: QVQLLESGGGVVQPGRSLRLSCAASGFTFSSYAMHWVRQAPGKGLEWVAFISHDGNRNSYADSVRGRFTISRDNSKNTLYLQMNSLRAEDTAVYYCARDLGYYNGFSYWGQGTLVTVSA VL: DIVMTQSPSSVSASVGDRVTITCRASQGISSWLAWYQQKPGKAPKLLIYAASSLQSGVPSRFSGSGSGTDFTLTISSLQPEDFATYYCQQANSFPPTFGPGTKVDIK What is its recorded koff?
6.24e-05 s⁻¹

Given the entry G52 (antibody, V domains shown, Tested as a mAb; also called FAP-G52; FAP-G52-Bio (biotin-conjugated form)) VH: EVQLLESGGDLVQPGGSLRLSCAASGFTFSSYAMSWVRQAPGKGLEWVSGISNGGDSIAYADSVKGRFTVFRDNAKNTLYLQMNSLRAEDTAIYYCARGNYYAHDDWGQGTLVTVSA VL: DIQLTQSPSSVSASVGDRVTITCRASQGVGSWLAWYQQKPGKPPKLLIYAASSLQSGVPSRFSGSGSGTDFTLTISSLQPEDFATYYCQQANSFPLTFGGGTKVEIK , report its measured koff.
1.81e-05 s⁻¹
